# Tested on: LOX IMVI
# TEST_NAME: NCI tumour cell line growth inhibition, 48 h
Activity calls are given as the source filed them. Cut-off read from the data, not from the text of the source: active = GI50 up to about 1.1 µM and inactive = higher.
What GI50 was measured for each of the following?

Worked examples, 3 compounds total:
>  <COMPOUND>
COP(C)(=O)/C(Cc1ccccc1)=N\O (stereo unspecified)

>  <RESULT>
> 100 µM (inactive)

$$$$
>  <COMPOUND>
CC(C)(Oc1ccccc1)C(=O)Sc1c(-c2ccccc2)c(=O)n(-c2ccccc2)c(=S)n1-c1ccccc1

>  <RESULT>
49.5 µM (inactive)

$$$$
>  <COMPOUND>
C(=C\c1csnn1)/c1cccnc1

>  <RESULT>
> 100 µM (inactive)

$$$$

Value sought for every listed compound: GI50.
1. COC1CC(OS(=O)(=O)c2ccc([N+](=O)[O-])cc2)C(OC(=O)c2ccccc2)C(C)O1 (stereo unspecified)
2. O=C1C2c3[nH]c4ccccc4c3C3CCCC3C2C(=O)N1c1ccccc1 (stereo unspecified)
3. O/N=C1/CCCCCC1NO (stereo unspecified)

Return:
1. > 100 µM (inactive)
2. > 100 µM (inactive)
3. > 100 µM (inactive)

###

# Test system: MDA-N
# TEST_NAME: NCI tumour cell line growth inhibition, 48 h
The source made the active and inactive calls. Cut-off read from the data, not from the text of the source: active = GI50 up to about 1.1 µM and inactive = higher. Non-standard residues stand in square brackets, D forms with d. Residues, ends and D or L forms follow the SMILES beside them. *: point of attachment. Cbz = O=C(OCc1ccccc1)*; Boc = CC(C)(C)OC(=O)*; Aib = CC(C)(N)C(=O)O; OBn = c1ccc(CO*)cc1; OtBu = CC(C)(C)O*; βAla = NCCC(=O)O
Hi there, use one of these labels in your reply, thanks! active, inactive

Examples with answers:
>  <COMPOUND>
CN(C)CCO/N=C1/C=C2CC[C@H]3[C@@H]4CC[C@H](O)[C@@]4(C)CC[C@@H]3[C@@]2(C)CC1

>  <LABEL_CLASS>
inactive

$$$$
>  <COMPOUND>
O=c1[nH]nc(-c2ccc([N+](=O)[O-])cc2)n1/N=C/c1ccc([N+](=O)[O-])cc1

>  <LABEL_CLASS>
inactive

$$$$
>  <COMPOUND>
S=C(Cc1ccc2c(c1)Sc1ccccc1O2)N1CCOCC1

>  <LABEL_CLASS>
inactive

$$$$
>  <COMPOUND>
CC[C@H]1C=CCC[C@@]2(C[C@@H]3CC[C@@H]4[C@H](C(=O)OCCCCCCCCCCCCCCCC(=O)N(CCCN)CCCCN)[C@]5(CCC[C@@H](C)O5)NC(=[N+]34)N2)O1

>  <LABEL_CLASS>
active

$$$$
>  <COMPOUND>
COC(=O)/C1=C/C=C\C[C@@]2(C)CC(c3ccoc3)OC(=O)[C@@H]2CC[C@H]1C (some centres undefined)

>  <LABEL_CLASS>
inactive

$$$$
>  <COMPOUND>
CN(C)CCNc1ccc2nnn3c4ccccc4c(=O)c1c23

>  <LABEL_CLASS>
inactive

$$$$
>  <COMPOUND>
CC(C)(C)OC(=O)CC(NC(=O)OC(C)(C)C)C(=O)NC(CCCCNC(=O)OCc1ccccc1)C(=O)NC(C)(C)C(=O)NCCC(=O)OCc1ccccc1 (centres undefined) (Boc-D(OtBu)K(Cbz)[Aib][βAla]-OBn; configuration not given here)

>  <LABEL_CLASS>
inactive

$$$$
>  <COMPOUND>
O=c1[nH]nc(-c2ccccc2)n1O

>  <LABEL_CLASS>
inactive

$$$$

Switching to the query record.
Enquiry: Which outcome was entered for the compound `Cc1ccc(NC(=O)/C(=N\NC(N)=O)c2c(O)c3ccccc3[nH]c2=O)cc1` in this test?
Return: inactive
